# EXPERIMENTAL_CONDITIONS: human gut metagenome, 24 h, 2 µM; also: call rule not given here
QUANTITY_MEASURED: Bacterial Biotransformation

Known results for molecules:
MOLECULE	Bacterial Biotransformation
COc1ccc(C(CN(C)C)C2(O)CCCCC2)cc1 (centres undefined)	Compound NOT metabolized
COc1ccc(/C=C/C(=O)Nc2ccccc2C(=O)O)cc1OC	Compound metabolized
CN(CCOc1ccc(CC2SC(=O)NC2=O)cc1)c1ccccn1.O=C(O)/C=C\C(=O)O (centres undefined) [ROSIGLITAZONE MALEATE]	Compound metabolized
Cc1cc2c(s1)Nc1ccccc1N=C2N1CCN(C)CC1	Compound metabolized

Query: Quick one: Bacterial Biotransformation for C[C@]12CCC(=O)C=C1[C@@H]1C[C@@H]1[C@H]1[C@@H]3[C@@H]4C[C@@H]4[C@@]4(CCC(=O)O4)[C@@]3(C)CC[C@@H]12 ?
Result: Compound metabolized

Query: Quick one: Bacterial Biotransformation for CN(C/C=C/C#CC(C)(C)C)Cc1cccc2ccccc12 ?
Result: Compound NOT metabolized

Query: Quick one: Bacterial Biotransformation for CC(NC(C)(C)C)C(=O)c1cccc(Cl)c1 (centres undefined) ?
Result: Compound NOT metabolized

Query: Quick one: Bacterial Biotransformation for COc1ccc([C@@H]2Sc3ccccc3N(CCN(C)C)C(=O)[C@@H]2OC(C)=O)cc1 ?
Result: Compound metabolized

Query: Quick one: Bacterial Biotransformation for CCOC(=O)[C@H](CCc1ccccc1)N[C@@H](C)C(=O)N1Cc2ccccc2C[C@H]1C(=O)O ?
Result: Compound metabolized

Query: Quick one: Bacterial Biotransformation for CC(C)(C)NC[C@H](O)COc1nsnc1N1CCOCC1.O=C(O)/C=C\C(=O)O [TIMOLOL MALEATE] ?
Result: Compound NOT metabolized

Query: Quick one: Bacterial Biotransformation for Nc1nc(NC2CC2)c2ncn([C@H]3C=C[C@@H](CO)C3)c2n1.Nc1nc(NC2CC2)c2ncn([C@H]3C=C[C@@H](CO)C3)c2n1.O=S(=O)(O)O [ABACAVIR SULFATE] ?
Result: Compound metabolized

Query: Quick one: Bacterial Biotransformation for Nc1nnc(-c2cccc(Cl)c2Cl)c(N)n1 ?
Result: Compound NOT metabolized
